Target: full-length beta-Catenin (Uniprot ID P35222) (Homo sapiens (Human)) (UniProt P35222)
Test: fluorescence polarization competition; full-length beta-catenin, competitor 5FAM-TCF4(10-53) probe
pEC50: −log10 of the molar value. Starred links: 1 amine or outer side, 2 acyl side, 3 side chain; linkers in the order of their positions; H or OH if unused. Positions of bridges follow the written chain, without caps; N, C: chain ends. Non-standard residues stand in square brackets, D forms with d. Primed or numbered codes have the meaning given here. No end group written: not given here. PyrS2″ = (S)-3-amino-1-((pent-4-en-1-yloxy)carbonyl)pyrrolidine-3-carboxylic acid (stapling residue), C=CCCCOC(=O)N1CC[C@@](N[*:1])(C(=O)[*:2])C1; B5(5) = 2,2-bis(4-pentenyl)glycine, 2-amino-2-(pent-4-en-1-yl)hept-6-enoic acid (stitching residue), C=CCCCC(CCCC=C)(N[*:1])C(=O)[*:2]; PyrS2 = (S)-3-amino-1-((pent-4-en-1-yloxy)carbonyl)pyrrolidine-3-carboxylic acid, C=CCCCOC(=O)N1CC[C@@](N[*:1])(C(=O)[*:2])C1; B5 = 2-amino-2-(pent-4-en-1-yl)hept-6-enoic acid, C=CCCCC(CCCC=C)(N[*:1])C(=O)[*:2]; Phe(2-Cl) = N[C@@H](Cc1ccccc1Cl)C(=O)O; Bta = N[C@@H](Cc1csc2ccccc12)C(=O)O; αAllylPro = C=CC[C@@]1(C(=O)O)CCCN1; tBuAla = CC(C)(C)C[C@H](N)C(=O)O; Cha = N[C@@H](CC1CCCCC1)C(=O)O; S8 = C=CCCCCCC[C@](C)(N)C(=O)O; Thr(ol) = C[C@@H](O)[C@H](N)CO; hLeu = CC(C)CC[C@H](N)C(=O)O
property-measured: pEC50

• [αAllylPro]D[tBuAla][B5]DDAAFF[PyrS2][Cha][Bta]Q-NH2 (staple 1-4; staple 4-11 (inferred)) [I-1331] = 7.12

A: Ac-[αAllylPro]D[Cha][B5(5)]DTAAFT[PyrS2″][Phe(2-Cl)][Bta][Thr(ol)] (staple 1-4, 4-11) [I-1310]
B: Ac-[αAllylPro]D[hLeu][B5(5)]DDAAFN[S8]F[Bta]H-NH2 (staple 1-4, 4-11; also: staple isomer, earlier eluting HPLC peak) [I-583]
Q: Hey, which is lower on measured pEC50, A or B ? Provide the label of your selected option as the answer.
A: A
